# ASSAY_SUMMARY: Phase I dose escalation trial: pharmacokinetic profile
# Type: in vivo, human
# TEST_PARAMETERS: human, plasma, oral, 320 mg, Total Daily Dose 320 (mg), bid q4h, patient plasma
# Excerpt: Pharmacokinetics profile with oral bid dosing was also studied. The plasma concentration of the drug reached several folds over the efficacious concentration (in vitro IC50) as illustrated in Table 8. […]

[
  {
    "MOLECULE": "CC(=O)c1cc2c(o1)C(=O)c1ccccc1C2=O [Compound 1, 2-acetylnaphtho[2,3-b]furan-4,9-dione]",
    "Cmax": "2920 nM"
  }
]
